Source listed as patent US6635621B1.

- experimental system: rat cathepsin L (Rattus norvegicus, UniProt P07154)
- Sequence (P07154 114-334): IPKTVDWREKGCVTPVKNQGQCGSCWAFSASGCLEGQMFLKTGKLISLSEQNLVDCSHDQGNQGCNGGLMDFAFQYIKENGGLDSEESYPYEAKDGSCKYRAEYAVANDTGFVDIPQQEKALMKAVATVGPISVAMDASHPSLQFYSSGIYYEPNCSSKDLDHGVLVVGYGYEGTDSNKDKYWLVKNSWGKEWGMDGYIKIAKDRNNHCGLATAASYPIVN
- assay notes: In vitro assay for inhibition of cathepsin L
- Type: biochemical
- experimental setup: r rat cathepsin L, substrate N-CBZ-Phe-Arg-AMC, pH 5.0, 10 min incubation at room temperature
quantity name: IC50 (µM)
Please respond with the number in µM and leave the unit unwritten.

CC(=O)N/C=C(/NC(=O)[C@H](CC(C)C)NC(=O)OCc1ccccc1)C(N)=O [Example 10a]    8.62
COc1ccc(C(=O)/C(=C\N2CCOCC2)NC(=O)[C@H](CC(C)C)NC(=O)OCc2ccccc2)cc1    0.27

Below: the item to evaluate.
Per the record, NC(=O)C(NC(=O)[C@H](Cc1ccccc1)NC(=O)CCc1ccccc1)C(O)O (stereo partly shown) has IC50 of 0.004

* * *

- experimental system: rat cathepsin B (Rattus norvegicus, UniProt P00787)
- Sequence (P00787 80-333): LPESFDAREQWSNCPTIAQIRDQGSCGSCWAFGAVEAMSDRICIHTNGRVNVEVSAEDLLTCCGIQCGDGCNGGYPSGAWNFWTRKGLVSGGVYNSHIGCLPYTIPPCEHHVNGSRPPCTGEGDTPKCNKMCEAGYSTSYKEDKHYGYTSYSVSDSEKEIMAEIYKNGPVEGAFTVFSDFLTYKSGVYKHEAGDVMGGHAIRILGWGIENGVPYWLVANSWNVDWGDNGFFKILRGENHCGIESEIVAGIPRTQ
- assay notes: In vitro assay for inhibition of cathepsin B
- Type: biochemical
- experimental setup: r rat cathepsin B, substrate N-CBZ-Phe-Arg-AMC, pH 5.1, 10 min incubation at room temperature
quantity name: IC50 (µM)
Kindly provide the numeric value in µM only, without the unit symbol.

Illustrative cases are given below, each with its answer.
NC=C(NC(=O)[C@H](Cc1ccccc1)NC(=O)CCc1ccccc1)C(N)=O [Example 4]    2.63
NC=C(NC(=O)[C@H](CC1CCCCC1)NC(=O)OCc1ccccc1)C(N)=O [Example 2]    1.17
CC(C)C[C@H](NC(=O)OCc1ccccc1)C(=O)NC(=CNc1ccccc1)C(N)=O [Example 8]    37.1
CC(C)C[C@H](NC(=O)OCc1ccccc1)C(=O)N/C(=C\N1CCN(C)CC1)C(N)=O [Example 17]    1.9
COc1ccc(C(=O)/C(=C\N2CCOCC2)NC(=O)[C@H](CC(C)C)NC(=O)c2cc3ccccc3s2)cc1 [Example 26]    1.47

Lab note: molecule O=C(CCc1ccccc1)N[C@@H](Cc1ccccc1)C(=O)N/C(=C/N1CCOCC1)C(=O)OC(c1ccccc1)c1ccccc1 [Example 25] tested on rat cathepsin B (Rattus norvegicus, UniProt P00787); recorded IC50 was 0.06

Measured IC50 (rat cathepsin B (Rattus norvegicus, UniProt P00787)), entry CC(C)C[C@H](NC(=O)OCc1ccccc1)C(=O)N/C(=C/O)C(N)=O [Example 15] : 9.5

Summary: COc1ccc(C(=O)/C(=C\N2CCOCC2)NC(=O)[C@H](CC(C)C)NC(=O)OCc2ccccc2)cc1 [Example 28] , rat cathepsin B (Rattus norvegicus, UniProt P00787), IC50 = 1.96

Record for NC(=O)C(NC(=O)[C@H](Cc1ccccc1)NC(=O)CCc1ccccc1)C(O)O (stereo partly shown) [Example 14] under target or system rat cathepsin B (Rattus norvegicus, UniProt P00787): IC50 reported as 0.98

* * *

- experimental system: rat cathepsin B (Rattus norvegicus, UniProt P00787)
- assay notes: In vitro assay for inhibition of cathepsin B
- Format: biochemical
- experimental setup: r rat cathepsin B, substrate N-CBZ-Phe-Arg-AMC, pH 5.1, 10 min incubation at room temperature
quantity name: IC50 (µM)
Provide only the numeric value, understood in µM.

Answered examples (3):
CC(=O)N/C=C(\NC(=O)[C@H](CC(C)C)NC(=O)OCc1ccccc1)C(N)=O [Example 10b]    50.5
NC=C(NC(=O)[C@H](Cc1ccccc1)NC(=O)OCc1ccccc1)C(N)=O [Example 3]    1.42
NC(=O)C(NC(=O)[C@H](Cc1ccccc1)NC(=O)OCc1ccccc1)C(O)O (stereo partly shown) [Example 13]    1.4

Proceeding to the next compound to report its IC50.
IC50 in this record for CC(C)C[C@H](NC(=O)OCc1ccccc1)C(=O)NC(C(N)=O)C(O)O (stereo partly shown) [Example 11] : 2.4
